Assay: NCI Yeast Anticancer Drug Screen. Data for the rad50 strain (AID 155);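 further: 0% = growth of vehicle-only cultures of the same strain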
Conditions: S. cerevisiae rad50 strain growth inhibition; at 50.0 µM; stronger effect = higher value
The panel holds about 79,000 compounds, 15% with a hit somewhere; the sample as a whole holds those more often.
reported_endpoint: growth inhibition (%)
Give bare numbers, in %.

> print(dat)
                                   compound  readout.units  quantitative.readout
1  CCCCCCCCOC(=O)C(C)OC(C)=O (configuration not stated)              %                  17.2

I have 2 compounds here; please give me growth inhibition for each one.
1. Cc1ccc(S(=O)(=O)c2ccc(C(=O)O)cc2)cc1
2. CCOCCOC(=O)C(C)OC(=O)/C(=C/C(=O)O)CCOCC (configuration not stated)

8.1
-1

I have 2 compounds here; please give me growth inhibition for each one.
1. CC(=O)c1cc2c(cc1C)C(C)CCC2(C)C (configuration not stated)
2. C/C(CC(=O)Nc1ccc(C)cc1)=N\NC(N)=S

1. -7
2. -13.5

I have 3 compounds here; please give me growth inhibition for each one.
1. CN(Nc1ccnc(=O)[nH]1)c1ccccc1
2. O=c1/c(=c2\c(=O)c3cccc4cccc2c43)c2cccc3cccc1c32
3. O=C(OCC1CCCO1)c1ccc(Cl)cc1 (configuration not stated)

-35.9
-10.2
13.7

###

Experiment: NCI Yeast Anticancer Drug Screen. Data for the sgs1 mgt1 strain (AID 161);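 further: 0% = growth of cultures given vehicle only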
Settings: S. cerevisiae sgs1 mgt1 strain, at 50.0 µM, stronger effect = higher value
Compounds without any hit were thinned out: in the full panel of roughly 79,000, 15% have a hit. Calls of active or inactive are those of the source. Cut-off read from the data, not from the text of the source: active = growth inhibition above about 70%; inactive = the rest.
reported_endpoint: growth inhibition

> print(dat)
                                   molecule  reported.endpoint           result
1  COc1cc(C(C)(C)C)c2oc3c(c2c1)C(=O)C(C(C)(C)C)=CC3(OC)OC  growth inhibition  -17% (inactive)

I have 7 molecules here; please give me growth inhibition for each one.
1. C[N+](C)([O-])Cc1ccccc1
2. COc1cccc2c(Cl)c3ccc(Cl)cc3nc12
3. CN(C)c1nc(N(C)C)c2cnn(C)c2n1
4. COc1cc(CSCC(=O)O)ccc1O
5. CC(C)(C)OC(=O)NC(Cc1ccc(OC(C)(C)C)cc1)C(=O)N[C@H]1CC[C@H](C(=O)O)C1 (some centres not stated)
6. Clc1cnc(Oc2ccccc2)c2ccccc12
7. CCCCCCCCc1ccccc1

-19.4% (inactive)
0.8% (inactive)
20.9% (inactive)
10.3% (inactive)
-8% (inactive)
-10.2% (inactive)
35.6% (inactive)

I have 4 molecules here; please give me growth inhibition for each one.
1. CC(C)(C)C(=O)OCn1cc2c(=O)[nH]cnc2n1
2. C/C(=N\NC(=O)C1CCCO1)c1cccc2ccccc12 (configuration not stated)
3. CC(=O)OC1CCC2(C)C(CCC34OC23CCC2(C)C(C(C)CCCC(C)C)CCC24C)C1(C)C (configuration not stated)
4. CC(=O)NC1=C(N2CCC2C)C(=O)c2ccccc2C1=O (configuration not stated)

["28.6% (inactive)", "5.55% (inactive)", "39.5% (inactive)", "6.15% (inactive)"]

###

Experiment: NCI Yeast Anticancer Drug Screen. Data for the mlh1 rad18 strain (AID 175)
Conditions: S. cerevisiae mlh1 rad18 strain growth inhibition; at 50.0 µM; stronger effect = higher value
Compounds without any hit were thinned out: in the full panel of roughly 79,000, 15% have a hit.
For each of the molecules below, state its growth inhibition.
One number for each entry, in %.

> print(dat)
                                   molecule  reported.endpoint  quantitative.readout
1  CCCCC(CCC)OC(=O)Nc1cccc2ccccc12 (stereo not given)  growth inhibition                    40
2  C=C[C@@]1(C)CCC2(O)C(CCC3C2(C)CCC[C@@]3(C)COC(=O)CC(=O)OC)C1 (stereo not given in full)  growth inhibition                  79.2
3  CCCNC(=O)N(CCN(C)C)S(=O)(=O)c1ccc(Cl)cc1  growth inhibition                 -17.4
4                   COc1cccc(/C(C#N)=C\O)c1  growth inhibition                  -8.8
5  Brc1cc(Br)cc(-c2nnc(-c3cccc4ccccc34)o2)c1  growth inhibition                 -4.65

I have 7 molecules here; please give me growth inhibition for each one.
1. Clc1ccc(CCn2cncn2)cc1
2. CC1(C)C([N+](C)(C)C)CS1(=O)=O (stereo not given)
3. CCc1c(Cc2[nH]c(C=O)c(C)c2CC)[nH]c(C=O)c1C
4. CCCCCCCCNCC(=O)O
5. CCOC(=O)CC1(C)OCC(c2ccccc2)O1 (stereo not given)
6. C=C(Nc1ccc([N+](=O)[O-])cc1[N+](=O)[O-])c1c/c(=N\NC(N)=S)c2ccccc2o1
7. N#C/C(=C/c1ccc[nH]1)C(=O)O

[-18.8, -6.45, 3.8, -12.9, -3.1, 6.45, -25.9]

###

Test: NCI Yeast Anticancer Drug Screen. Data for the mlh1 rad18 strain (AID 175)
Conditions: S. cerevisiae mlh1 rad18 strain growth inhibition; at 50.0 µM
Method: Growth inhibition of yeast strains with defined genetic alterations is measured as a screen for potential anti-cancer activity. Selected strains with alterations in DNA damage repair or cell cycle control were exposed to compounds and growth inhibition was measured relative to vehicle treated controls. The strain used in this assay is mlh1 rad18
Compounds without any hit were thinned out: in the full panel of roughly 79,000, 15% have a hit. Active and inactive are the calls of the source. Cut-off read from the data, not from the text of the source: active = growth inhibition above about 70%; inactive = the rest.
Respond using exactly one of the listed classes: 1.0 (active), 0.0 (inactive)

compound	discrete_label
CCC(C)c1cnc(CC(C)C)c(=O)[nH]1 (stereo not drawn)	0.0
Cc1ccc(N=C=Nc2ccc(C)cc2)cc1	0.0
COC(=O)c1nc(N)nc(N)c1[N+](=O)[O-]	0.0
COc1cccc(C2c3cc4c(cc3OC(C)(N3CCCC3)C2C)OCO4)c1OC (stereo not drawn)	0.0
COc1ccc2c(c1)CN(Cc1ccccc1)CO2	0.0

I'd appreciate the recorded outcome for COc1ccc(-c2c(C#N)c(S)n(C3OC(COC(C)=O)C(OC(C)=O)C(OC(C)=O)C3OC(C)=O)c(=O)c2C#N)cc1 (stereo not drawn) from this test. 0.0

I'd appreciate the recorded outcome for C=C1C(=O)O[C@H]2[C@H]1[C@@H](OC(=O)C=C(C)C)CC1=C[C@@H](C[C@@]3(C)O[C@@H]23)OC1=O from this test. 0.0

I'd appreciate the recorded outcome for O=C(O)c1cc(-c2ccccc2Cl)nc2cc3ccccc3cc12 from this test. 0.0

I'd appreciate the recorded outcome for CC1(C)[C@@H]2C[C@H]1[C@@H](Cc1cccc(C[C@H]3c4cc(-c5ccccn5)ncc4[C@H]4C[C@@H]3C4(C)C)c1)c1cc(-c3ccccn3)ncc12 from this test. 0.0

I'd appreciate the recorded outcome for CCOP(=O)(OCC)/C(=C\n1ccc(=O)[nH]c1=S)C(=O)OC from this test. 0.0

I'd appreciate the recorded outcome for CC(/C=C/c1ccccc1)=N\O from this test. 0.0

I'd appreciate the recorded outcome for CC1OC(c2ccc(Cl)cc2)OC1C (stereo not drawn) from this test. 0.0

I'd appreciate the recorded outcome for CC(=C/c1ccccc1)/C=C1/SC(=S)N(C=C2C(=O)NC(=O)NC2=O)C1=O from this test. 0.0

###

Assay: NCI Yeast Anticancer Drug Screen. Data for the rad50 strain (AID 155);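 further: 0% = growth of vehicle-only cultures of the same strain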
Details: S. cerevisiae rad50 strain growth inhibition; at 50.0 µM; stronger effect = higher value
Compounds without any hit were thinned out: in the full panel of roughly 79,000, 15% have a hit.
Classification field: Yes = growth inhibition at or over 20%; No = growth inhibition under 20%.

Some solved entries appear below for comparison.
> print(dat)
                                   compound  discrete.label
1  CC(CO)(NC(=O)c1ccccc1)C(=O)O (configuration not stated)              No
2              O=C(/C=C/c1ccccc1)SCc1ccccc1              No
3                   CC(C)SC(=O)C[Si](C)(C)C              No

Threshold query (growth inhibition >= 20%) on CC(C)CCCC(C)CCCC(C)CCCC(C)CC(=O)O (configuration not stated) No

###

Assay: NCI Yeast Anticancer Drug Screen. Data for the sgs1 mgt1 strain (AID 161);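 further: 0% = growth of cultures given vehicle only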
Settings: S. cerevisiae sgs1 mgt1 strain, at 50.0 µM, stronger effect = higher value
About 79,000 compounds went through this panel and 15% of them were active in at least one assay; those are over-represented in the sample as a whole.
reported_endpoint: growth inhibition (%)
One number for each entry, in %.

> print(dat)
                                   compound  reported.endpoint  readout.units  quantitative.readout
1        CC(=O)Nc1ccc(/C=C2/C(=O)ON=C2C)cc1  growth inhibition              %                     6
2                   COC(=O)/C=C(/C)c1ccccc1  growth inhibition              %                   0.9
3  COC1N(C2C=CC(CO)O2)C(=O)NC(=O)C1(C)Br (stereo not drawn)  growth inhibition              %                   2.8
4        Clc1ccc2c(c1)CCc1cccnc1C2=C1CCNCC1  growth inhibition              %                 -20.6
5             O=C1NCC/C1=C\c1ccc(Cl)c(Cl)c1  growth inhibition              %                 -10.3
6                 COc1ccc(CC(=O)OCCCl)cc1OC  growth inhibition              %                     3

I have 5 compounds here; please give me growth inhibition for each one.
1. COC(=O)c1cccnc1C#N
2. O=C(CC(CC(=O)Oc1c(Br)cc(Br)cc1C(=O)O)C(=O)Oc1c(Br)cc(Br)cc1C(=O)O)Oc1c(Br)cc(Br)cc1C(=O)O
3. CC(C/C=C(/C=O)C(C)CC(C)(C)C)CC(C)(C)C (stereo not drawn)
4. O=c1ccn2n1Cc1ccccc1C2
5. COc1cc(NCCCCCN2C(=O)c3ccccc3C2=O)c2ncccc2c1

[2.9, -10, 36.3, -17.9, 17.4]

I have 2 compounds here; please give me growth inhibition for each one.
1. N#C/C(=C/c1ccc[nH]1)C(=O)O
2. O=C(Nc1cc(Cl)ccc1Cl)Oc1ccc(Cl)cc1C(=O)c1ccccc1

-6.9
-37.8
